System: L1210 leukemia ip in BDF1 mice, survival T/C
Assay: NCI In Vivo Anticancer Drug Screen. Data for tumor model L1210 Leukemia (intraperitoneal) in B6D2F1 (BDF1) mice
Settings: endpoint: mean survival time; dose: 150.0 mg/kg/injection; schedule: Q01DX001 (ip); vehicle: other; higher = longer survival
Description: The antitumor activity of compounds was measured in mice bearing transplantable tumors. Survival or tumor size were measured and the results are expressed as the measurement made in the treated group (T) divided by the measurement made in the vehicle treated control group (C). The tumor model used in this assay is L1210 Leukemia (intraperitoneal) in B6D2F1 (BDF1) mice
Inconclusive results and toxic doses are left out.
observedProperty: T/C

COc1cc2c(cc1OC)C13CCN4CC5=CCOC6CC(=O)N2C1C6C5CC43 (stereo not given) (tested in a mixture with another compound); 86 % of control
Cc1[nH]c(=S)oc1C; 97 % of control
COc1cc(NC(=O)Nc2c(C)cc(I)cc2C(=O)O)c(I)cc1I; 92 % of control
COC1OC(COC(=O)c2ccc([N+](=O)[O-])cc2)C(OC(=O)c2ccc([N+](=O)[O-])cc2)C1OCc1ccccc1 (stereo not given); 86 % of control

Consider the record given below.
Problem: Item under review: `Cc1cc(=O)oc2cc(OCc3ccccc3)cc(O)c12` . Reported T/C?
Solution: 108 % of control

* * *

Tested on: L1210 leukemia ip in BDF1 mice, survival T/C
Test: NCI In Vivo Anticancer Drug Screen. Data for tumor model L1210 Leukemia (intraperitoneal) in B6D2F1 (BDF1) mice
Conditions: endpoint: mean survival time; dose: 100.0 mg/kg/injection; schedule: Q01DX001 (ip); vehicle: saline; higher = longer survival
Inconclusive results and toxic doses are left out.
observedProperty: T/C

Answered cases to consult:
CCCCSc1n[nH]c(=O)nc1N; 93 % of control
OCC1OC(n2ccc3c(SCc4ccccc4)ncnc32)C(O)C1O (stereo unspecified); 98 % of control
Cc1cccc(C)c1C1CC1S(=O)(=O)c1ccccc1 (stereo unspecified); 101 % of control

Problem: Item under review: `O=[N+]([O-])c1ccc(Oc2ccc(F)cc2)c([N+](=O)[O-])c1` . Reported T/C?
Solution: 103 % of control

Problem: Item under review: `C(=C/c1ccnc(/C=C/c2ccccc2)c1)/c1ccccc1` . Reported T/C?
Solution: 91 % of control

Problem: Item under review: `Cc1nc2ccccc2c(Oc2ccccc2)c1-c1ccccc1` . Reported T/C?
Solution: 102 % of control

* * *

Test system: L1210 leukemia ip in BDF1 mice, survival T/C
Assay: NCI In Vivo Anticancer Drug Screen. Data for tumor model L1210 Leukemia (intraperitoneal) in B6D2F1 (BDF1) mice
Settings: endpoint: mean survival time; dose: 200.0 mg/kg/injection; schedule: Q04DX003 (ip); vehicle: carboxymethylcellulose (CMC); higher = longer survival
Inconclusive results and toxic doses are left out.
// reported T/C for each item listed

Answered cases to consult:
CC(=O)C1(O)CCC2C3CC=C4CC(O)CCC4(C)C3CCC21C (centres undefined); 98 % of control
CC[Si](C)(C)N1CC1; 101 % of control
CCCOC(=O)c1ccc(OC(=O)NC)cc1; 91 % of control

Consider the record given below.
Problem: Item under review: `Cc1noc2c1CCCC2` . Reported T/C?
Solution: 106 % of control

Reference source for all entries: PubChem BioAssay AID248
